Heads up, these compounds all have MIC values measured for Staphylococcus aureus ATCC 6638p.

Compound	MIC [µg/mL]
C[C@H](O/N=C(\C(=O)NC1C(=O)N2C(C(=O)[O-])=C(CSc3nc(N)cc(N)[n+]3-c3ccccc3)CS[C@H]12)c1csc(N)n1)C(=O)O (stereo partly drawn)	4
C[C@@H](O/N=C(\C(=O)NC1C(=O)N2C(C(=O)[O-])=C(CSc3nc(N)cc(N)[n+]3N)CS[C@H]12)c1csc(N)n1)C(=O)O (stereo partly drawn)	8
Cc1c(N)nc(SCC2=C(C(=O)[O-])N3C(=O)C(NC(=O)/C(=N\O[C@H](C)C(=O)O)c4csc(N)n4)[C@H]3SC2)[n+](N)c1N (stereo partly drawn)	4
